Values from PubChem BioAssay (NCI)

Items are presented alongside their recorded TGI.
# System: OVCAR-4 ovarian
# METHOD_NOTES: NCI tumour cell line growth inhibition, 48 h
METRIC_NAME: TGI

COMPOUND: CCOC(=O)/C=C/C1(CCOC(C)=O)CCCCC1
METRIC_NAME: TGI
RESULT: > 10 µM
--
COMPOUND: CN1CCCC1c1cccnc1.O=C(O)c1ccccc1O.O=C([O-])c1ccccc1[OH2+].O=C([O-])c1ccccc1[OH2+].[Mn+2] (centres undefined)
METRIC_NAME: TGI
RESULT: > 100 µM
--
COMPOUND: CN(C)c1nc(N)c(C#N)c(C#N)c1C#N
METRIC_NAME: TGI
RESULT: > 10 µM
--
COMPOUND: Cc1nc(N(C(C)C)C(C)C)c(C(C)C)o1
METRIC_NAME: TGI
RESULT: > 100 µM

====

# Test system: SNB-75 CNS
# METHOD_NOTES: NCI tumour cell line growth inhibition, 48 h

MOLECULE: NC(=O)CC(N)c1nn[nH]n1 (stereo unspecified)
TGI: > 100 µM
//
MOLECULE: Cc1ccc(S(=O)(=O)NC(=O)Nc2cc(Cl)c(S(N)(=O)=O)cc2S(N)(=O)=O)cc1
TGI: > 100 µM
//
MOLECULE: COC(=O)[C@@]1(NC(=O)C(CC(=O)OC(C)(C)C)NC(=O)OC(C)(C)C)C[C@H]1C (stereo partly specified)
TGI: > 100 µM
//
MOLECULE: CCCC(=O)OCOC(=O)N(C)N=Nc1ccc(C(=O)OCC)cc1
TGI: > 100 µM
//
MOLECULE: N#C/C(=C\c1cc2ccc(N3CCC3)cc2oc1=O)C(=O)N(CC(=O)O)CC(=O)O
TGI: > 100 µM
//
MOLECULE: O=S(=O)(O)c1ccc2cc(N=Nc3c(O)ccc4ccccc34)ccc2c1
TGI: > 100 µM

====

# System: HS 578T breast
# METHOD_NOTES: NCI tumour cell line growth inhibition, 48 h
METRIC_NAME: TGI (µM)

COMPOUND: N#Cc1cc2c(cc1Cl)Sc1nnc(Nc3cccc4ccccc34)n1S2(=O)=O
UNIT: µM
VALUE_MODIFIER: =
NUMBER: 9.74

COMPOUND: CCCC(=O)OCOC(=O)N(C)N=Nc1ccc(C(=O)OCC)cc1
UNIT: µM
VALUE_MODIFIER: =
NUMBER: 85.7

COMPOUND: CN(C)c1nc(N)c(C#N)c(C#N)c1C#N
UNIT: µM
VALUE_MODIFIER: >
NUMBER: 10

COMPOUND: O=c1[nH]c2nc[nH]c2c(=O)n1C1CCCCC1
UNIT: µM
VALUE_MODIFIER: >
NUMBER: 100

COMPOUND: C[C@H](NC(=O)CNC(=O)CCCCCC(=O)NCC(=O)N[C@@H](C)C(=O)OCc1ccccc1)C(=O)OCc1ccccc1
UNIT: µM
VALUE_MODIFIER: >
NUMBER: 100

COMPOUND: O=C1CSC(c2ccccc2O)N1c1ccc(Oc2ccc(Cl)cc2)c(Cl)c1 (stereo not drawn)
UNIT: µM
VALUE_MODIFIER: =
NUMBER: 38

COMPOUND: C=C1C2CCC3(CCC4C5(C)CCCC4(C=[N+](CCO)C5)C3C2)C1O (stereo not drawn)
UNIT: µM
VALUE_MODIFIER: >
NUMBER: 100

COMPOUND: Clc1nc(Cl)c2ncn(CCOCCn3cnc4c(Cl)nc(Cl)nc43)c2n1
UNIT: µM
VALUE_MODIFIER: =
NUMBER: 0.693

====

# Tested on: BT-549 breast
# METHOD_NOTES: NCI tumour cell line growth inhibition, 48 h
METRIC_NAME: TGI

COMPOUND: CCC(C)N1CN(c2ccccc2)C2(CCN(CCCSc3ccc(F)cc3)CC2)C1=O (configuration not stated)
EXPERIMENTAL_SYSTEM: BT-549 breast
METRIC_NAME: TGI
RESULT: 6.99 µM
//
COMPOUND: Cc1cc2c(c(=O)o1)C1=S(SC(c3ccccc3)=C1)S2 (configuration not stated)
EXPERIMENTAL_SYSTEM: BT-549 breast
METRIC_NAME: TGI
RESULT: > 100 µM
//
COMPOUND: NCc1ccc(-c2nc(-c3ccc(Cl)c(O)c3)c(-c3ccncc3)[nH]2)cc1
EXPERIMENTAL_SYSTEM: BT-549 breast
METRIC_NAME: TGI
RESULT: > 25 µM
//
COMPOUND: CSc1c(C#N)c(S)n(-c2ccc(Cl)cc2)c(=O)c1C#N
EXPERIMENTAL_SYSTEM: BT-549 breast
METRIC_NAME: TGI
RESULT: > 100 µM
//
COMPOUND: Cc1ccc(/N=N/C(=NNC(=O)c2ccc(C)cc2)c2ccc(N(C)C)cc2)cc1
EXPERIMENTAL_SYSTEM: BT-549 breast
METRIC_NAME: TGI
RESULT: 62.4 µM
//
COMPOUND: C=CCNC(=O)CN(CC(=O)O)C1CCCCC1N(CC(=O)O)CC(=O)O (configuration not stated)
EXPERIMENTAL_SYSTEM: BT-549 breast
METRIC_NAME: TGI
RESULT: > 100 µM
//
COMPOUND: CSC1=Nc2c(c(C)c(-c3ccccc3)n2COC(CO)CO)C2=NC(=O)CN12
EXPERIMENTAL_SYSTEM: BT-549 breast
METRIC_NAME: TGI
RESULT: > 100 µM

====

# Tested on: HCT-116 colon
# METHOD_NOTES: NCI tumour cell line growth inhibition, 48 h

COMPOUND: N#Cc1cccc(Nc2ncc(-c3ccccc3)o2)c1
EXPERIMENTAL_SYSTEM: HCT-116 colon
TGI: > 25 µM
--
COMPOUND: S=C(NCc1ccc2c(c1)OCO2)N1CCN(c2ncnc3c2oc2ccccc23)CC1
EXPERIMENTAL_SYSTEM: HCT-116 colon
TGI: > 100 µM
--
COMPOUND: C=C(C)CCC1CC=[N+]([O-])OC1C(C)(C)C (stereo unspecified)
EXPERIMENTAL_SYSTEM: HCT-116 colon
TGI: > 100 µM
--
COMPOUND: CNC(=O)CCCNC(=O)CCCC(=O)OC
EXPERIMENTAL_SYSTEM: HCT-116 colon
TGI: > 100 µM
--
COMPOUND: FC(F)(F)c1cccnc1Sc1nc2ccccc2s1
EXPERIMENTAL_SYSTEM: HCT-116 colon
TGI: > 100 µM
--
COMPOUND: O=c1[nH]c(=O)n(C2C(CO)OC(CO)C2O)cc1F (stereo unspecified)
EXPERIMENTAL_SYSTEM: HCT-116 colon
TGI: > 100 µM

====

Items are presented alongside their recorded GI50.
# System: CAKI-1 renal
# METHOD_NOTES: NCI tumour cell line growth inhibition, 48 h

SAMPLE_SMILES: C=CC(=O)N[C@@H](/C=C/C(=O)OCC)Cc1ccc(-c2cc(Cl)cc(Cl)c2)cc1
GI50: 21.5 µM
//
SAMPLE_SMILES: CSC1=Nc2c(c(C)c(-c3ccccc3)n2COC(CO)CO)C2=NC(=O)CN12
GI50: > 100 µM
//
SAMPLE_SMILES: Clc1ccc([I+]c2ccc(Cl)cc2Cl)c(Cl)c1
GI50: 1.61 µM

====

# System: MOLT-4 leukemia
# METHOD_NOTES: NCI tumour cell line growth inhibition, 48 h

COMPOUND: O=C1/C(=C/c2ccccc2O)N=C(c2ccccc2)N1c1cc(C(F)(F)F)ccc1Cl
TGI: > 100 µM

COMPOUND: COc1cc(C(=O)C2CC3(CCC2(O)c2cc(OC)c(OC)c(OC)c2)CC(=O)Nc2ccccc2C3=O)cc(OC)c1OC (stereo not drawn)
TGI: > 100 µM

COMPOUND: Nc1nc(C(=O)O)c(N=Nc2ccccc2)c(=O)[nH]1
TGI: > 100 µM

====

# System: SK-OV-3 ovarian
# METHOD_NOTES: NCI tumour cell line growth inhibition, 48 h
METRIC_NAME: TGI

MOLECULE: Cc1ccc(Cl)cc1-n1c(C)nc2c(cnn2-c2ccnc3c(C(F)(F)F)cccc23)c1=O
RESULT: > 100 µM
--
MOLECULE: BrCc1ccc(CBr)c2c1-c1c(CBr)ccc3ccc(CBr)c-2c13
RESULT: > 100 µM
--
MOLECULE: COC(=O)[C@@]1(NC(=O)C(CC(=O)OC(C)(C)C)NC(=O)OC(C)(C)C)C[C@H]1C (stereo not given in full)
RESULT: > 100 µM
--
MOLECULE: CCN1C[C@]2(C)CC[C@H](OC)C34C5C[C@@H]6[C@@H](OC)C[C@@](OC)(C5[C@H]6OCc5ccccc5)C(C13)[C@H](OC(C)=O)[C@@H]42 (stereo not given in full)
RESULT: > 100 µM
--
MOLECULE: COc1ccc(NC(=O)C(=O)Cc2nc3ccc(C(=O)c4ccccc4)cc3[nH]c2=O)c([N+](=O)[O-])c1
RESULT: > 100 µM
--
MOLECULE: O=c1[nH]c(=S)[nH]c(-c2ccccc2)c1Cc1c(O)ccc2ccccc12
RESULT: > 100 µM
--
MOLECULE: CNC(=O)CCCNC(=O)CCCC(=O)OC
RESULT: > 100 µM
--
MOLECULE: CC1SC(c2ccc(Cl)cc2)N(CCc2cccs2)C1=O (stereo not given)
RESULT: 5.79 µM
--
MOLECULE: COc1ccc(COc2cc3oc(=O)c4cc(C(C)O)ccc4c3cc2OC)cc1 (stereo not given)
RESULT: 45.8 µM
--
MOLECULE: CSC1=Nc2c(c(C)c(-c3ccccc3)n2COC(CO)CO)C2=NC(=O)CN12
RESULT: > 100 µM
--
MOLECULE: c1ccc(C2CCCCC2)c(OCCCCCN2CCNCC2)c1
RESULT: 21.8 µM
--
MOLECULE: COc1ccc(S(=O)(=O)N2CCNCC2)cc1OC
RESULT: > 100 µM
--
MOLECULE: O=c1ccn(/C=C/C(O)C(O)CO)c(=O)[nH]1 (stereo not given)
RESULT: > 100 µM
--
MOLECULE: CN1C(=NCCO)NS(=O)(=O)c2ccccc21
RESULT: > 100 µM
--
MOLECULE: c1n[nH]cc1C12C3C4C5C3C1C5C42 (stereo not given)
RESULT: > 100 µM
--
MOLECULE: C/C(N)=N/OCc1nc(C)no1
RESULT: > 100 µM
--
MOLECULE: COc1ccc(C(=O)Oc2c(C#N)sc3c2c(=O)n(-c2ccccc2)c(=S)n3-c2ccccc2)cc1
RESULT: > 100 µM
--
MOLECULE: O=C1/C(=C/c2ccccc2O)N=C(c2ccccc2)N1c1cc(C(F)(F)F)ccc1Cl
RESULT: > 100 µM
--
MOLECULE: O=S(=O)(NCCCNc1cc(-c2cn(-c3ccccc3)nc2-c2cccc(O)c2)ccn1)c1ccc(F)cc1
RESULT: 23.5 µM
--
MOLECULE: CCOC(=O)/C=C\C(C#N)(C#N)N=Cc1ccsc1
RESULT: 35.6 µM
--
MOLECULE: COc1cc(C(=O)/C=C/c2c(C(F)(F)F)nc3ccccn23)cc(OC)c1OC
RESULT: 19 µM
--
MOLECULE: c1ccc(COC2C3COC(O3)C(OCc3ccccc3)C2OCc2ccccc2)cc1 (stereo not given)
RESULT: > 100 µM
--
MOLECULE: O=C1/C(=C/c2cccs2)NC(=S)N1CN1CCCCC1
RESULT: > 100 µM
--
MOLECULE: COc1c(CC=C(C)C)c(O)c(C(CC(C)C)c2c(O)c(CC=C(C)C)c(O)c(C(C)=O)c2O)c(O)c1C(C)=O (stereo not given)
RESULT: 11.1 µM
--
MOLECULE: O=C(NCCCCCCCN1CCCCCCC1)C(C1CCCCC1)C1CCCCC1
RESULT: 23.6 µM
--
MOLECULE: CC1CCC2(C)C(CC=C(C=O)C2(O)C=O)C12CO2 (stereo not given)
RESULT: 10.2 µM
--
MOLECULE: O=c1[nH]c2nc[nH]c2c(=O)n1C1CCCCC1
RESULT: > 100 µM
--
MOLECULE: O=C(O)C12CC3CC(CC(F)(C3)C1)C2
RESULT: > 100 µM
--
MOLECULE: Nc1nc2ccccc2c2c1S(=O)(=O)c1ccc(Cl)cc1C2=O
RESULT: 44.8 µM
--
MOLECULE: [Cl][Cu][Cl]
RESULT: > 10 µM
